test-system: T1, rat beta CGRP (SEQ ID NO: 83) (rat, not fully specified)
T1 construct: also called rat βCGRP; rat β-CGRP
T1 peptide: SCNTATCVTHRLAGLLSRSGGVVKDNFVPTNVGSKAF
assay-notes: SPR, 37 C, mutein captured, CGRP analyte
For each record, write down the corresponding kon.
Provide the reading as a plain figure in M⁻¹ s⁻¹.

Exercise: Look up kon for this binder: lipocalin mutein SEQ ID NO: 13 (designed binder, biotinylated by NHS chemistry for capture in SPR) QDSTSDLIPAPPLSKVPLQQNFQDNQFHGKWYVVGRAGNEELREDKDPQKMEATIYELKEDKSYNVTDVGFSEKKCIYVIHTFVPGSQPGEFTLGNIKSYPGVTSALVRVVSTNYNQHAMVFFKVVKQNRELFEITLYGRTKELTSELKENFIRFSKSLGLPENHIVFPVPIDQCIDGSAWSHPQFEK
Key: 3.16e+06

Exercise: What measured kon goes with lipocalin mutein SEQ ID NO: 19 (designed binder, biotinylated by NHS chemistry for capture in SPR) QDSTSDLIPAPPLSKVPLQQNFQDNQFHGKWYVVGRAGNDTLREDKDPEKMEATIYELKEDKSYNVTDVGLVQKKCMYVIHTFVPGSQPGEFTLGNIKSYPGVTSALVRVVSTNYNQHAMVFVKLVKQSRELFEITLYGRTKELTSELKENFIRFSKSLGLPENHIVFPVPIDQCIDGSAWSHPQFEK ?
Key: 2.01e+06
